- assaySystem: Yer184c (UniProt P39961)
- Sequence: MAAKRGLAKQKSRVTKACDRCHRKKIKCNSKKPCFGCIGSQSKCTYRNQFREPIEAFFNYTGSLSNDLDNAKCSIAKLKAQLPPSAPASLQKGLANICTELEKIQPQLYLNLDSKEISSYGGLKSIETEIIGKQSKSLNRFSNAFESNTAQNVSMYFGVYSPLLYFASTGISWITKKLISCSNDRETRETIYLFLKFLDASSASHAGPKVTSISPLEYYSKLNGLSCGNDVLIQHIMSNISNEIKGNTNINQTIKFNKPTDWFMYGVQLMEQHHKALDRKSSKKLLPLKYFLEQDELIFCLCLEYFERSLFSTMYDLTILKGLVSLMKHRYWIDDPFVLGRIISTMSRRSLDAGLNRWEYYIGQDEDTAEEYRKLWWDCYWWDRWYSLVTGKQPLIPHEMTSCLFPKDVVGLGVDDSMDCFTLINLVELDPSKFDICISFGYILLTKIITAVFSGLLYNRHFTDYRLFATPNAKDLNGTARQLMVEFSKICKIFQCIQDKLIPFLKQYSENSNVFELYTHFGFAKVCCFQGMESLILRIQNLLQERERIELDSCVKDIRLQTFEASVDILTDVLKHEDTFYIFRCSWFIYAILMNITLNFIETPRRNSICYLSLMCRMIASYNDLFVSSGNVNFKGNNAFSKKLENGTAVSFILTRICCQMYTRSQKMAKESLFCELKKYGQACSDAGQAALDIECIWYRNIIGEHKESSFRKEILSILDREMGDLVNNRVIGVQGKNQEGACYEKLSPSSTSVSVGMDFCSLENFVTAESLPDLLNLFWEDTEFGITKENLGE
- protocolDetails: PBM E-score (8-mer binding enrichment) (E-score (-0.5 to 0.5)); higher = stronger / more preferred TF binding
- statedConditions: protein concentration: 100 nM; construct: GST-full length
In all, about 33,000 sequences were measured (“E-score (-0.5 to 0.5)”: median about -0.016, highest 2% from about 0.3 on). The sample as a whole holds a higher share of the highest values than the screen did.
metric: PBM E-score
// return a plain number; no unit text

Exercise: Any idea what its PBM E-score is? The sequence is "TGTTGTAA"
Solution: 0.148

Exercise: Another sequence to look at: "ACCTTGCA"
Solution: -0.197

Exercise: Another sequence to look at: "ACCCGAAA"
Solution: 0.169

Exercise: Another sequence to look at: "CCAGATCA"
Solution: 0.135

Exercise: Another sequence to look at: "TATCGGCA"
Solution: 0.213

Exercise: Another sequence to look at: "CCTCGGTA"
Solution: -0.0209

Exercise: Another sequence to look at: "CTTCGGTC"
Solution: 0.309

Exercise: Another sequence to look at: "TGGCTAAA"
Solution: 0.0133

Exercise: Another sequence to look at: "CTGCAACA"
Solution: 0.152

Exercise: Another sequence to look at: "CCGTTCCA"
Solution: 0.0249

Exercise: Another sequence to look at: "CATTCGAG"
Solution: -0.0644

Exercise: Another sequence to look at: "CGGCTAGA"
Solution: 0.306

Exercise: Another sequence to look at: "AAATGATT"
Solution: 0.316

Exercise: Another sequence to look at: "AGATCTAA"
Solution: 0.0189

Exercise: Another sequence to look at: "ACTCGGCA"
Solution: 0.299

Exercise: Another sequence to look at: "AAGTTCCT"
Solution: 0.0951

Exercise: Another sequence to look at: "CGTCGGAA"
Solution: 0.24

Exercise: Another sequence to look at: "ATCAAGTG"
Solution: -0.132

Exercise: Another sequence to look at: "AAGAAACC"
Solution: 0.129

Exercise: Another sequence to look at: "ACTGGCAA"
Solution: -0.0748

Exercise: Another sequence to look at: "CGAACTTC"
Solution: 0.13

Exercise: Another sequence to look at: "AGATCCGG"
Solution: 0.263

Exercise: Another sequence to look at: "TCACGGAA"
Solution: 0.341

Exercise: Another sequence to look at: "CCTTCAGC"
Solution: -0.152

Exercise: Another sequence to look at: "AACCGACT"
Solution: 0.0723

Exercise: Another sequence to look at: "CTTTCGGA"
Solution: 0.286

Exercise: Another sequence to look at: "CCGCGGAA"
Solution: 0.416

Exercise: Another sequence to look at: "GCGCGGGA"
Solution: 0.0199

Exercise: Another sequence to look at: "CGGCTAGC"
Solution: 0.24

Exercise: Another sequence to look at: "CACGTTCG"
Solution: -0.203

Exercise: Another sequence to look at: "TCTCGGCA"
Solution: 0.35

Exercise: Another sequence to look at: "ATTCGGAC"
Solution: 0.349

Exercise: Another sequence to look at: "ATGTTCCC"
Solution: -0.107

Exercise: Another sequence to look at: "AGTCGGAC"
Solution: 0.0344

Exercise: Another sequence to look at: "AACTCCGT"
Solution: 0.222

Exercise: Another sequence to look at: "ATTCGGTC"
Solution: 0.244

Exercise: Another sequence to look at: "ACCCTCCC"
Solution: 0.0834

Exercise: Another sequence to look at: "GACCGAAC"
Solution: 0.33

Exercise: Another sequence to look at: "CTCAGTAA"
Solution: -0.0129

Exercise: Another sequence to look at: "AACTCCGC"
Solution: -0.0142

Exercise: Another sequence to look at: "GGGGGGAC"
Solution: -0.445

Exercise: Another sequence to look at: "ATTATGGC"
Solution: 0.0693

Exercise: Another sequence to look at: "CCGACTAG"
Solution: -0.036

Exercise: Another sequence to look at: "GGCCAACA"
Solution: -0.0401

Exercise: Another sequence to look at: "AGGCTAAA"
Solution: -0.0661

Exercise: Another sequence to look at: "CCTCGGAG"
Solution: 0.277

Exercise: Another sequence to look at: "GCCCGAAA"
Solution: 0.171

Exercise: Another sequence to look at: "GAGGAGCA"
Solution: -0.0781

Exercise: Another sequence to look at: "CCACCACA"
Solution: -0.093

Exercise: Another sequence to look at: "CCCCAAAG"
Solution: -0.253

Exercise: Another sequence to look at: "AGTGTGCA"
Solution: -0.0513

Exercise: Another sequence to look at: "AGCCGAAA"
Solution: 0.364

Exercise: Another sequence to look at: "ATGTCCGA"
Solution: 0.231

Exercise: Another sequence to look at: "GCAAGAAA"
Solution: 0.161

Exercise: Another sequence to look at: "CAGGTATA"
Solution: -0.163

Exercise: Another sequence to look at: "ATACTGCG"
Solution: -0.0752

Exercise: Another sequence to look at: "CCACGGAC"
Solution: -0.00729

Exercise: Another sequence to look at: "TCACGGCA"
Solution: 0.096

Exercise: Another sequence to look at: "CTTTCGGC"
Solution: 0.201

Exercise: Another sequence to look at: "ACTCGGCC"
Solution: 0.121

Exercise: Another sequence to look at: "ATGTCCGC"
Solution: -0.0241

Exercise: Another sequence to look at: "CACCAGAC"
Solution: -0.00896

Exercise: Another sequence to look at: "CCTCGGCA"
Solution: 0.367

Exercise: Another sequence to look at: "AGCACCAT"
Solution: -0.291

Exercise: Another sequence to look at: "CGTCAACC"
Solution: -0.137

Exercise: Another sequence to look at: "ACATTAAG"
Solution: 0.132

Exercise: Another sequence to look at: "ACTCGGCT"
Solution: 0.209

Exercise: Another sequence to look at: "AAATGATA"
Solution: 0.162

Exercise: Another sequence to look at: "ATCATTCA"
Solution: 0.195

Exercise: Another sequence to look at: "AACTCCGG"
Solution: 0.424

Exercise: Another sequence to look at: "ACTCGGCG"
Solution: 0.325

Exercise: Another sequence to look at: "CACCGAAC"
Solution: 0.143

Exercise: Another sequence to look at: "GACCGAAA"
Solution: 0.265

Exercise: Another sequence to look at: "CAAATGAG"
Solution: -0.104

Exercise: Another sequence to look at: "GGCCTCCA"
Solution: -0.0306

Exercise: Another sequence to look at: "ATATCCGA"
Solution: 0.343

Exercise: Another sequence to look at: "ATGTTCCG"
Solution: 0.347

Exercise: Another sequence to look at: "GTTCGGGA"
Solution: 0.226

Exercise: Another sequence to look at: "TATGTACA"
Solution: -0.0329

Exercise: Another sequence to look at: "CAGTTCCG"
Solution: 0.199

Exercise: Another sequence to look at: "CCTTCTAG"
Solution: -0.237

Exercise: Another sequence to look at: "CCGCGGGC"
Solution: 0.25

Exercise: Another sequence to look at: "CACTGCGA"
Solution: -0.0568

Exercise: Another sequence to look at: "CCACGGAA"
Solution: 0.338

Exercise: Another sequence to look at: "CCCCCTTA"
Solution: -0.348

Exercise: Another sequence to look at: "GTATCCCA"
Solution: -0.0951

Exercise: Another sequence to look at: "ATGGAGAC"
Solution: -0.176

Exercise: Another sequence to look at: "CCTGAGTC"
Solution: -0.0246

Exercise: Another sequence to look at: "AGAGTGGC"
Solution: -0.217

Exercise: Another sequence to look at: "GTATCCGA"
Solution: 0.304

Exercise: Another sequence to look at: "CCACGGAG"
Solution: 0.0656

Data credit: the supplement of paper PMC3334620
